system: Wnt5a (protein binding on small-molecule microarray); test: Wnt5a binders on small-molecule microarray, primary screen, biophysical, 635/667 nm fluorescence (AID 1142); settings: 635 nm fluorescence, higher = more signal;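 further: fluorescence read at 667 nm with signal to noise per printed feature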
Decision: composite z-score >= 0.07 yields Condition met, all other cases yield Condition not met.

Some solved cases for reference:
COC(=O)[C@@]1(Cc2ccccc2)[C@H]2c3cc(C(=O)N(C)C)n(CCF)c3C[C@H]2CN1C(=O)c1ccccc1 | Condition met
C[C@]1(C(=O)NC2CC2)c2ccccc2C(=O)N(Cc2cc(F)cc(C(F)(F)F)c2)[C@H]1c1ccc(CO)cc1 | Condition not met
COc1ccc([Si](C)(C)[C@@H]2[C@@H](CC(=O)N3Cc4ccccc4C[C@H]3CO)O[C@]3(C(=O)N(Cc4ccc(I)cc4)c4ccccc43)[C@H]2C)cc1 | Condition met
CC(C)c1ccc(NN2C(C(O)C(C)c3ccccc3)C=CC3C(=O)N(c4ccccc4)C(=O)C32)cc1 (stereo unspecified) | Condition met

Exam item: Hello, I need to know if `COC(=O)[C@@]1(Cc2ccc(OC)cc2)[C@@H]2[C@@H](CC(=O)[C@H]2CC(=O)C(=O)N(C)C)CN1C(=O)c1ccccc1` has measured composite z-score not below 0.07. Thanks!
Marked response: Condition met

Exam item: Hello, I need to know if CN1C(=O)C2C(C1=O)C1C=C(CCCO)C2C(C2CC2)N1C (stereo unspecified) has measured composite z-score not below 0.07. Thanks!
Marked response: Condition met

Exam item: Hello, I need to know if `C=C[C@H](C)[C@@H](OC(=O)Nc1ccc(SC)cc1)c1ccc(OCCO)cc1` has measured composite z-score not below 0.07. Thanks!
Marked response: Condition met

Exam item: Hello, I need to know if `C[C@]1(C(=O)NCC(F)(F)F)c2ccccc2C(=O)N(Cc2cc(C(F)(F)F)cc(C(F)(F)F)c2)[C@H]1c1ccc(CO)cc1` has measured composite z-score not below 0.07. Thanks!
Marked response: Condition not met

Exam item: Hello, I need to know if CC1CC/C=C\[C@H]2OC34C=CCN(CCN5CCOCC5)C(=O)[C@H]3N(C(CO)C(C)C)C(=O)[C@@H]4C2C(=O)O1 (stereo partly specified) has measured composite z-score not below 0.07. Thanks!
Marked response: Condition met
